I'd appreciate it if you could supply Relative binding activity, % values for the items below.
Target: T1, Biotin-huCGRPaSA (human, not fully specified; biotin (position not given))
T1 construct: exact construct ('aSA') not explained; also called Biotin CGRPaSA; full-length (1-37) CGRP
T1 peptide: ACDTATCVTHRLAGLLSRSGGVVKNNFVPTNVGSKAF
Test: ELISA, supernatant; relative to chimeric C245
Just the number in %, nothing appended.

Can you look up the measured Relative binding activity, % of hu234 (antibody, V domains shown, 3C1 HC-4/3C1 LC-1) VH: QVQLVQSGAEVKKPGASVKVSCKASGYTFTGYTMNWVRQAPGQGLEWMGLINPYIGNTHYNQKFKDRVTFTVDRSSSTAYMELSRLRSDDTAVYYCARELDSGFDYWGQGTLVTVSS VL: DVVMTQSPLSLPVTLGQPASISCRSSQNIVHSNGDTYLEWYQQRPGQSPRLLIYKVSNRFSGVPDRFSGSGSGTDFTLKISRVEAEDVGVYYCYQGSHVPWTFGQGTKLEIK for me?
50

Item under review: hu32 (antibody, V domains shown, 1F5 HC-1/1F5 LC1-2) VH: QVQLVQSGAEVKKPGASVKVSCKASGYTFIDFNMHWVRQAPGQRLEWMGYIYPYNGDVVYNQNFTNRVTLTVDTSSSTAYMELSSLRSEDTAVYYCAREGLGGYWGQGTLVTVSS VL: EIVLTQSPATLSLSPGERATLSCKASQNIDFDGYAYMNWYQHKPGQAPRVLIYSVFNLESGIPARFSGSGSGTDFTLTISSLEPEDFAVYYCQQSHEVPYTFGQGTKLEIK . Reported Relative binding activity, %?
116

Can you look up the measured Relative binding activity, % of hu168 (antibody, V domains shown, 3E5 HC-2/3H10 LC2-1) VH: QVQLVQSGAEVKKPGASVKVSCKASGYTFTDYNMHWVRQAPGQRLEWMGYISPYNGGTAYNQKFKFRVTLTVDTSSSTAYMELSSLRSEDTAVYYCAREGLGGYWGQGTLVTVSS VL: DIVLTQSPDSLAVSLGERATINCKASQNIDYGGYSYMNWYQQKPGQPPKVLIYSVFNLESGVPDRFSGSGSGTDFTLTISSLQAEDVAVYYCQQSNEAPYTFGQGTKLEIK for me?
68

// Relative binding activity, % lookup, key: hu144 (antibody, V domains shown, 3E5 HC-1/1A2 LC2-1) VH: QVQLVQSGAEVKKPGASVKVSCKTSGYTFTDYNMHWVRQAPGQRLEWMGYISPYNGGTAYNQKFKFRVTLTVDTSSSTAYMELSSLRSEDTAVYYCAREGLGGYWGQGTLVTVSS VL: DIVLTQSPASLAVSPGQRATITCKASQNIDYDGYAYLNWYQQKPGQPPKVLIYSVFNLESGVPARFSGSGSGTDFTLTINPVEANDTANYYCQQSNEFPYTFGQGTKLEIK
101

Given the binder hu151 (antibody, V domains shown, 3E5 HC-1/1F5 LC1-4) VH: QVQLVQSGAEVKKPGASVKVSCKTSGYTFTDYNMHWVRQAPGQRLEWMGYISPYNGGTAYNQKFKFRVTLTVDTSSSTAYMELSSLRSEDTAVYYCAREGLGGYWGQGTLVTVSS VL: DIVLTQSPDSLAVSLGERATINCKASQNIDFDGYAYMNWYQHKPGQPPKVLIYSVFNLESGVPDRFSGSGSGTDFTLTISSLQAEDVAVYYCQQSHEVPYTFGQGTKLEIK , what is its reported Relative binding activity, %?
119

Origin of measurements: patent US20260125454A1
